src = patent US11994512B2

For each record, write down the corresponding M1-2 Log2 Median Normalized.
Tested on: intracellular proteome of ENR+CD and ENR organoids
Assay details: LC-MS/MS TMT proteomics of ENR+CD versus ENR organoids
Type: cell-based, C57BL/6 mice
Applied conditions: protein abundance ratio ENR+CD versus ENR organoids, sample pair M1-2; LC-MS/MS TMT proteomics
Answer using only a numeral; do not append any unit.

## Task Find the recorded M1-2 Log2 Median Normalized belonging to Q9JHT5 (protein, UniProt Q9JHT5 1-344, looked up, full-length) MAAGCCGVKKQKLSSSPPSGSGGGGGASSSSHCSGESQCRAGELGLGGAGTRLNGLGGLSGGGGSGGGGGCPLSPPQGCGGGGGGGGGGGSGSGGGGISLSPPLSCGVGTLLSTPAAATASSPSSSSSSPGSRKMVVSAEMCCFCFDVLYCHLYGYQQPRTPRFTNEPYPLFVTWKIGRDKRLRGCIGTFSAMNLHSGLREYTLTSALKDSRFPPMTRDELPRLFCSVSLLTNFEDVCDYLDWEVGVHGIRIEFINEKGSKRTATYLPEVAKEQGWDHIQTIDSLLRKGGYKAPITNEFRKTIKLTRYRSEKMTLSYAEYLAHRQHHHFQNGIGHPLPPYNHYS and report it.
## Result 1.751

## Task Find the recorded M1-2 Log2 Median Normalized belonging to Q9D6X6 (protein, UniProt Q9D6X6 1-382, looked up, full-length) MAGIPGLFILLVLLCVFMQVSPYTVPWKPTWPAYRLPVVLPQSTLNLAKADFDAKAKLEVSSSCGPQCHKGTPLPTYEEAKQYLSYETLYANGSRTETRVGIYILSNGEGRARGRDSEATGRSRRKRQIYGYDGRFSIFGKDFLLNYPFSTSVKLSTGCTGTLVAEKHVLTAAHCIHDGKTYVKGTQKLRVGFLKPKYKDGAGGDNSSSSAMPDKMKFQWIRVKRTHVPKGWIKGNANDIGMDYDYALLELKKPHKRQFMKIGVSPPAKQLPGGRIHFSGYDNDRPGNLVYRFCDVKDETYDLLYQQCDAQPGASGSGVYVRMWKRPQQKWERKIIGIFSGHQWVDMNGSPQDFNVAVRITPLKYAQICYWIKGNYLDCREG and report it.
## Result 1.393

## Task Find the recorded M1-2 Log2 Median Normalized belonging to Q99LD8 (protein, UniProt Q99LD8 1-285, looked up, full-length) MGTPGEGLGRCSHALIRGVPESLASGEGAGAGLPALDLAKAQREHGVLGGKLRQRLGLQLLELPPEESLPLGPLLGDTAVIQGDTALITRPWSPARRPEVDGVRKALQDLGLRIVEMGDENATLDGTDVLFTGREFFVGLSKWTNHRGAEIVADTFRDFAVSTVPVSGSSHLRGLCGMGGPRTVVAGSSEAAQKAVRAMAALTDHPYASLTLPDDAASDCLFLRPGLPGATPFLLHRGGGDLPNSQEALQKLSDVTLVPVSCSELEKAGAGLSSLCLVLSTRPHC and report it.
## Result 1.577
